Hey, just so you know, these numbers are from paper PMC6522510.

A collection of molecules and their measured M07e %inh
Test system: M07e
Parameters: species or system AML cell lines (8); Primary HTS, single concentration about 10 uM, Cell Titer Glo viability; log10 luminescence, per cent inhibition relative to cycloheximide control
Settings: 72 h, relative to cycloheximide control, log10 luminescence; inhibitor
Lab book: enter the figure in %, no units written.

A selection of reference data follows.
Fc1ccc(Nc2nccc(-c3c(-c4ccc(C(F)(F)F)cc4)nn4ncccc34)n2)cc1F [SJ000573224-1, U17838/186/3]
-1.97
COc1ccccc1C(=O)c1cnc(NC2CCN(S(C)(=O)=O)CC2)nc1N [SJ000581142-1]
6.858
c1ccc(Oc2ccc(Nc3ncc(-c4ccccc4)o3)cc2)cc1 [SJ000573154-1, U15924/95/2]
-0.6223

With those in mind, consider the next molecule.
For record CCCS(=O)(=O)Nc1ccc(F)c(C(=O)c2c[nH]c3ncc(-c4ccc(Cl)cc4)cc23)c1F [SJ000574274-1] the listed M07e %inh is -0.8043

---

System: U937
Design: species or system AML cell lines (8); Primary HTS, single concentration about 10 uM, Cell Titer Glo viability; log10 luminescence, per cent inhibition relative to cycloheximide control
Conditions: 72 h, relative to cycloheximide control, log10 luminescence; inhibitor
measured_metric: U937 %inh (%)
Lab book: enter the figure in %, no units written.

A selection of reference data follows.
Cc1nnc(-c2ccc(C)c(-c3ccc(C(=O)NCc4ccc(Cl)cc4)cc3)c2)o1 [SJ000573166-1, R5419/62/6]
3.066
COc1cc(Nc2ncc3c(C)nc(-c4cccc(Oc5ccccc5)c4)n3n2)cc(OC)c1OC [SJ000573063-1, U19891/44/1]
10.08
CC(C)(C)c1cnc(CSc2cnc(NC(=O)C3CCNCC3)s2)o1 [SJ000574284-1, BMS-387032 | SNS-032]
69.97
Nc1nccc(-c2c(-c3ccc(F)cc3)nn3cc(C(F)(F)F)ccc23)n1 [SJ000573142-1, U14741/95/1]
-1.917
NC(=O)c1sc(-n2cnc3cc(C(F)(F)F)ccc32)cc1OCc1ccccc1Br [SJ000573185-1, U19121/197/1]
-0.2413

Record CN(c1ccc(NC(=O)Nc2ccc(OC(F)(F)F)cc2)cc1)c1ccnc(Nc2cccc(S(N)(=O)=O)c2)n1 [SJ000573281-1, U17983/20/3] has U937 U937 %inh equal to 20.62

Record [O-][S+]1CCN(Cc2ccc(-c3ccc4ncnc(Nc5ccc(OCc6cccc(F)c6)c(Cl)c5)c4c3)o2)CC1 [SJ000573006-1, U16708/127/1] has U937 U937 %inh equal to -0.3031

Record CN(c1ccc(NC(=O)Nc2c(Cl)cccc2Cl)cc1)c1ccnc(Nc2cccc(CS(C)(=O)=O)c2)n1 [SJ000573099-1, U17983/31/1] has U937 U937 %inh equal to 19.94

Record COc1cccc(-n2ncc3c(N/N=C/c4cccc(F)c4)ncnc32)c1 [SJ000573217-1, U18028/186/1] has U937 U937 %inh equal to -3.323

Record CC(=O)OCC(=O)[C@@]12OC(C)(C)O[C@@H]1C[C@H]1[C@@H]3C[C@H](F)C4=CC(=O)C=C[C@]4(C)[C@@]3(F)[C@@H](O)C[C@@]12C [SJ000285768-4, FLUOCINONIDE] has U937 U937 %inh equal to 4.65
